Recorded values, source ChEMBL document CHEMBL1146884.

# measurement-target: Delta-type opioid receptor (Mus musculus, UniProt P32300)
# Sequence (P32300 whole entry): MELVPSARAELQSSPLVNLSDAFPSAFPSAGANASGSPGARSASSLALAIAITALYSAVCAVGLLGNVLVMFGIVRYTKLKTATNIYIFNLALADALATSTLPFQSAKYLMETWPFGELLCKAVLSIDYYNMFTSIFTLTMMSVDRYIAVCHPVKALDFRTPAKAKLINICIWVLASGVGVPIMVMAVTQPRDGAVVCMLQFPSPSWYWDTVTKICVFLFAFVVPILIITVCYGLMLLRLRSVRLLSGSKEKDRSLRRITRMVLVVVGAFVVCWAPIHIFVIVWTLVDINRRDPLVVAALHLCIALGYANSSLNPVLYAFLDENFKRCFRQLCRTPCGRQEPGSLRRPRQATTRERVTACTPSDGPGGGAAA
# test-description: Agonist activity at delta opioid receptor assessed as inhibition of electrically-evoked contraction of mouse vas deferens
pIC50: −log10 of the molar value. Where a SMILES comes first, the peptide text is derived from it. [ ]: non-standard residue; d: D form. The star is where a group is joined. Dmt = Cc1cc(O)cc(C)c1C[C@H](N)C(=O)O; Tic = O=C(O)[C@@H]1Cc2ccccc2CN1; Cbz = O=C(OCc1ccccc1)*; NHPh = c1ccc(N*)cc1
parameter-measured: pIC50

Problem: Quick one: give measured pIC50 for CC(=O)NCCCC[C@H](NC(=O)[C@@H]1Cc2ccccc2CN1C(=O)[C@@H](N)Cc1c(C)cc(O)cc1C)C(=O)Nc1ccccc1 (H-[Dmt]-[Tic]-Lys(Ac)-NHPh)
Solution: < 5.00

Problem: Return pIC50 (reported value) for this compound: CC(=O)NCCCC[C@H](NC(=O)[C@@H]1Cc2ccccc2CN1C(=O)[C@@H](N)Cc1c(C)cc(O)cc1C)c1nc2ccccc2[nH]1
Solution: < 5.00

Problem: Annotate the compound Cc1cc(O)cc(C)c1C[C@H](N)C(=O)N1Cc2ccccc2C[C@H]1C(=O)N[C@@H](CCCCNC(=O)OCc1ccccc1)C(=O)Nc1ccccc1 (H-[Dmt]-[Tic]-Lys(Cbz)-NHPh) with its measured pIC50.
Solution: < 5.00
